- measurement_notes: Oral bioavailability in rhesus monkey at 1 mg/kg
- Assay type: ADME, organism-based, Macaca mulatta
- condition_description: in vivo
readout_kind: bioavailability (%)
API: value field is a number in %; no unit string.

Name the reported bioavailability value associated with the compound Nc1ccc(-c2cccs2)cc1NC(=O)c1ccc(N2CCC3(CC2)CNC(=O)O3)nc1 100

----------
- measurement_notes: in vivo
- condition_description: CD1 nu/nu, mouse, po, 100 mg/kg
- Description: Cmin in CD1 nu/nu mouse xenografted with human HCT116 cells at 100 mg/kg, po qd for 3 weeks after 24 hrs
readout_kind: concentration at 24 h (nM)
API: value field is a number in nM; no unit string.

Name the reported concentration at 24 h value associated with the compound Nc1ccc(-c2cccs2)cc1NC(=O)c1ccc(N2CCC3(CC2)CNC(=O)O3)nc1 500
